In this section we review reported pKd values for a set of compounds.
assay: Binding affinity to human telomerase P2b RNA by […]
pKd: −log10 of the molar value.

smilesString | pKd
CN1CCN(CCCN2c3ccccc3Sc3ccc(S(=O)(=O)N(C)C)cc32)CC1 | 3.35
CN(C)CCCN1c2ccccc2[C@H]2C[C@H]2c2ccccc21 | 2.96
O=C(c1ccc(O)cc1)c1ccc(O)cc1 | 2.82
OCCOCCN1CCN(CCCN2c3ccccc3Sc3ccc(C(F)(F)F)cc32)CC1 | 2.96

###

test: Binding affinity to human telomerase P2b RNA by […]
In this section we review reported Kd values for a set of compounds.

compound | Kd
C[n+]1ccc(Nc2ccc(NC(=O)c3ccc(N)cc3[N+](=O)[O-])cc2)cc1 | 570 µM
C[n+]1ccc(Nc2ccc(NC(=O)c3ccc(N)cc3)cc2)cc1 | 1100 µM
CN1CCN2c3ncccc3Cc3ccccc3C2C1 (stereo unspecified) [MIRTAZAPINE] | 1500 µM
CCN(CC)Cc1cc(Nc2c3ccccc3nc3c4ccccc4n(C)c23)ccc1O | 84 µM
N#Cc1ccc2c(c1)N(CCCN1CCN(CCO)CC1)c1ccccc1S2 | 310 µM
Nc1ccc(NC(=O)c2ccc(N)cc2)cc1 | 180 µM
